Test system: MDA-MB-435
Give your call using only these classes: t (active), f (inactive)

compound | tested_on | class_label
CN(C)c1ccc(/C=N/S(=O)(=O)c2ccc(-n3c(-c4ccccc4)nc4c(Br)cc(Br)cc4c3=O)cc2)cc1 | MDA-MB-435 | f

Outcome? `CC(=O)O[C@H]1CC[C@@]2(C)C(=C/C(=N/OCCN3CCCC3)[C@H]3[C@@H]4CC[C@H](OC(C)=O)[C@@]4(C)CC[C@@H]32)C1`
f

Short answer needed: outcome of this test for O=C1N(Cc2ccccc2Cl)c2ccccc2C12NN=C(c1cccc(Cl)c1)S2 (stereo unspecified) ?
f

What classification did `Cc1nc2cc(Nc3nc(Nc4ccc(F)cc4)nc(N4CCOCC4)n3)ccc2n1Cc1ccccc1` end up with in this test?
f

Short answer needed: outcome of this test for `O=C1c2cccnc2C(=O)c2c1c(C(=O)OCCCN1CCCCC1)c1ccccn21` ?
t

What was the test verdict on `CCSC[C@@H]1C[C@](O)(c2ccc(F)cc2)[C@@H](c2ccc(F)cc2)O1` ?
f

Please let me know the test result on file for CC1SC2(CCCCC2)N(NC(=O)c2[nH]c3ccc(Br)cc3c2-c2ccccc2)C1=O (stereo unspecified) .
f

---

Listed compounds paired with reported TGI
System: HT29 colon
procedure_text: NCI tumour cell line growth inhibition, 48 h

Worked examples follow.
compound | assay_metric | result
O=c1c(Cc2ccc(Cl)cc2)nnc2sc(-c3ccc(-c4ccc(Cl)cc4Cl)o3)nn12 | TGI | > 100 µM
COc1ccc(CCN2CCC(CN(C)Cc3cnn(-c4ccccc4)c3)CC2)cc1 | TGI | 17.3 µM
COc1ccccc1C1(c2c(OC)c(=O)c2=O)SCCCS1 | TGI | > 100 µM
CCCCNc1ccc(Nc2ccccc2)cc1 | TGI | 25.1 µM

Answer with the recorded TGI for the compound listed here: NC(Cc1ccc2nc3c4ccccc4c(=O)cc-3oc2c1)C(=O)O (stereo unspecified)
> 100 µM

Supply measured TGI of CCCCOP(C)(=O)C(NC(=O)OCC)(C(F)(F)F)C(F)(F)F (stereo unspecified) in your reply.
> 100 µM

---

Test system: RXF 393 renal
procedure_text: NCI tumour cell line growth inhibition, 48 h
assay_metric: TGI

A selection of reference data follows.
compound | TGI
COc1c(N2CCN(CN3C(=O)C(=O)c4cc(Cl)ccc43)C(C)C2)c(F)cc2c(=O)c(C(=O)O)cn(C3CC3)c12 (configuration not stated) | > 100 µM
O=C1c2cccnc2C(=O)c2c1c(C(=O)OCCCN1CCCCC1)c1ccccn21 | < 0.019 µM

Query TGI for O=C1OC(=O)C2C3C=CC(C12)C1C2C=CC2C31 (configuration not stated)
> 100 µM

For `COc1ccc(-c2csc(NC(=O)CN3CCN(c4cc5c(cc4F)c(=O)c(C(=O)O)cn5C4CC4)CC3)n2)cc1` , write its TGI.
27.7 µM

Quickly give me recorded TGI for CCCCOP(C)(=O)C(NC(=O)OCC)(C(F)(F)F)C(F)(F)F (configuration not stated)
> 100 µM

Complete the entry with TGI for `CN1CCN(c2nc(-c3csc(-c4cccs4)n3)cc3ccccc23)CC1`
3.9 µM

Note down TGI recorded for CCN1CCC(CNC(=O)c2ccc(N)cc2)N1CC (configuration not stated)
> 100 µM

---

Tested on: HCT-15 colon
procedure_text: NCI tumour cell line growth inhibition, 48 h
assay_metric: TGI

compound | result
CC1OC(CC(=O)O)CC2=C1C(=O)c1c(O)cccc1C2=O (stereo not drawn) | 0.183 µM

Tell me measured TGI for `NC(=S)N1N=C2c3ccccc3CC[C@H]2[C@@H]1c1ccc(Cl)cc1` please.
> 100 µM

Respond only with TGI recorded for `O=C(Nc1ccc(S(=O)(=O)/N=c2\ncccn2C(=O)C(C(F)(F)F)C(F)(F)F)cc1)C(C(F)(F)F)C(F)(F)F`
> 100 µM

Identify the reported TGI for the following entry. `COc1ccc(NCC(=O)Nn2c(-c3ccccc3)nc3ccccc3c2=O)cc1`
> 100 µM

---

Tested on: A498 renal
procedure_text: NCI tumour cell line growth inhibition, 48 h
# maps each entry to its GI50

molecule | tested_on | assay_metric | result
Cc1cc(O)c(C2=NN(c3ccc(S(N)(=O)=O)cc3)C(/C=C/c3ccccc3)C2)cc1Cl (centres undefined) | A498 renal | GI50 | 14.9 µM
CCCCCCNCc1cc(C(C)(C)C)cc(CNCCCCCC)c1O | A498 renal | GI50 | 2.02 µM

Quick one: give measured GI50 for `CC(=O)O[C@H]1CC[C@@]2(C)C(=C/C(=N/OCCN3CCCC3)[C@H]3[C@@H]4CC[C@H](OC(C)=O)[C@@]4(C)CC[C@@H]32)C1`
76.7 µM

---

TGI: recorded values
System: NCI/ADR-RES ovarian
procedure_text: NCI tumour cell line growth inhibition, 48 h

Worked examples, 4 molecules total:
molecule | tested_on | result
NCCN1C(=O)c2ccccc2C1c1ccc(Cl)cc1 (stereo not given) | NCI/ADR-RES ovarian | > 100 µM
Cc1[nH]c2cc(F)ccc2c1-c1nc2c3cccnc3c3ncccc3c2[nH]1 | NCI/ADR-RES ovarian | 5.37 µM
Cc1nc2sc(C(=O)c3ccc(Cl)cc3)c(N)c2c(-c2ccccc2Cl)c1C(=O)Nc1ccccc1 | NCI/ADR-RES ovarian | 60 µM
COC(=O)[C@H](Cc1cn(C)cn1)NC(=O)[C@H](C)NC(=O)Nc1cc(C(F)(F)F)cc(C(F)(F)F)c1 | NCI/ADR-RES ovarian | > 10 µM

Note TGI for the molecule shown: `CCCCCCNCc1cc(C(C)(C)C)cc(CNCCCCCC)c1O`
3.24 µM

Please give measured TGI of the following entry: `O=C1C(c2c(O)[nH]c3ccc(Br)cc23)=Nc2ccc(Br)cc21`
> 100 µM

Provide one value: measured TGI of `CCOc1ccc2c(c1)c(CC(=O)O)cn2C`
> 100 µM

Specify TGI for COc1cc2oc3c(c(=O)c2c(O)c1/C=C/C(C)C)C(C=C(C)C)Oc1cc(O)ccc1-3 (stereo not given) and stop.
31.1 µM

---

Recorded TGI for the following molecules
Tested on: SNB-19 CNS
procedure_text: NCI tumour cell line growth inhibition, 48 h

Below: 6 molecules and their reported TGI.
molecule | TGI
CN(CCNC(=O)c1c[nH]c2c1Cc1ccccc1-2)CCNC(=O)c1c[nH]c2c1Cc1ccccc1-2 | > 100 µM
O=C1c2cccnc2C(=O)c2c1c(C(=O)OCCCN1CCCCC1)c1ccccn21 | 1.83 µM
CCOC(=O)Nc1cc2ccccc2c(N=Nc2ccccc2)c1O | > 100 µM
Cl.Fc1c[c-]c(-c2ccccn2)c(F)c1.[Pt].c1ccc([PH+](C[PH+](c2ccccc2)c2ccccc2)c2ccccc2)cc1 | 1.32 µM
OCCN(CCO)c1cccc(N(CCO)CCO)n1 | > 100 µM
O=C(CC1C=Cc2ccccc2N1C(=O)c1ccccc1)c1ccccc1 (centres undefined) | > 100 µM

Read off the recorded TGI for `Cc1nc2cc(Nc3nc(Nc4ccc(F)cc4)nc(N4CCOCC4)n3)ccc2n1Cc1ccccc1`
> 100 µM

Assign TGI to the following record: CCC(C)C1=C(O)[N+]2([O-])Oc3ccc(-c4c(O)c(O)c(-c5ccc(OC(C)=O)cc5)c(OC(C)=O)c4OC(C)=O)cc3OC2(C(C)CC)C(=O)N1O (centres undefined)
> 50 µM

Dear colleague, please send me the reported TGI for NC(=O)NC1C(C(=O)O)N(Cc2ccccc2)C(=O)N1Cc1ccccc1 (centres undefined) when you can.
> 100 µM

---

System: HCC-2998 colon
procedure_text: NCI tumour cell line growth inhibition, 48 h
This section presents compounds with their documented TGI values.

Check out these entries, answers already filled in.
compound | tested_on | TGI
O=c1c(Cc2ccc(Cl)cc2)nnc2sc(-c3ccc(-c4ccc(Cl)cc4Cl)o3)nn12 | HCC-2998 colon | > 100 µM
O=C(O)c1nc2ccc(C(F)(F)F)cc2nc1Nc1ccc(F)cc1 | HCC-2998 colon | 34.3 µM

Return TGI (reported value) for this compound: CC(=O)OC1=CC2(OC(C)=O)CC(C)(C)C1C1C(=O)C=CC(=O)C12 (stereo not given)
> 100 µM

Entry `Cc1ccc2nc(-c3ccc(C(C)(C)C)cc3)oc(=O)c2c1` needs its TGI filled in; supply it.
27.8 µM

Tell us which TGI value is on record for `O=c1[nH]c(=O)n(COCc2ccccc2)cc1Nc1ccc(Br)cc1`
> 100 µM

---

// values below are reported GI50
Test system: NCI-H522 lung
procedure_text: NCI tumour cell line growth inhibition, 48 h

Solved cases (8 shown):
compound | GI50
Cc1ccc(-n2nnnc2-c2cnc(N3CCOCC3)nc2-c2cccc(C(F)(F)F)c2)cc1 | 1.89 µM
CCCCOC1OC(COC(=O)C(C)C)C(OC(=O)C(C)C)C(O)C1OC1OC(C)C(OC(=O)CCC)C(OC(=O)C(C)C)C1O (centres undefined) | 19.1 µM
Cn1cc(C2=C(Nc3ccccc3)C(=O)NC2=O)c2ccccc21 | 24.6 µM
O=Cc1ccc(-c2ccc(-c3nc4ccccc4s3)cc2)s1 | 69.1 µM
CN(CCC(=O)/C(=C\c1ccccc1)c1ccc(Cl)cc1)Cc1ccccc1 | 1.69 µM
CC([O-])=C1C(=O)c2ccccc2C1=O.CC([O-])=C1C(=O)c2ccccc2C1=O.CC[O-].CC[O-].[Ti+4] | > 100 µM
COc1ccc(CCN2CCC(CN(C)Cc3cnn(-c4ccccc4)c3)CC2)cc1 | 4.54 µM
NC(=O)c1sc(-n2cnc3cc(C(F)(F)F)ccc32)cc1OCc1ccccc1Br | > 20 µM

Moving on to another compound below.
For the compound `NC1(Cc2ccc(Cl)cc2)CCN(c2ncnc3[nH]ccc23)CC1` , give its measured GI50 value.
12.6 µM
